# Tested on: SK-MEL-28
# ASSAY TEXT: Cytotoxicity against human SK-MEL-28 cells after 48 hrs by SRB assay
# Assay type: functional, cell-based
# ASSAY SETUP: Homo sapiens, SK-MEL-28, 48 h
ASSAY READOUT: GI50

{"columns": ["MOLECULE SMILES", "EXPERIMENTAL SYSTEM", "REPORTED"],
 "data": [
  ["C/C=C1\\NC(=O)[C@H](Cc2ccccc2)NC(=O)[C@@H](C(C)C)NC(=O)[C@@H]([C@H](C)CC)NC(=O)[C@H](NC(=O)[C@H](NC(=O)[C@H](CCCN)NC(=O)[C@H]2CCCN2C(=O)[C@H](NC(=O)[C@@H](NC(=O)[C@@H](NC(=O)[C@H](NC(=O)CCCCCC)C(C)C)[C@@H](C)O)C(C)C)C(C)C)[C@H](C)CC)[C@H](C)OC(=O)[C@H](C(C)C)NC1=O", "SK-MEL-28", "915 nM"],
  ["C/C=C1\\NC(=O)[C@H](Cc2ccccc2)NC(=O)[C@@H](C(C)C)NC(=O)[C@@H]([C@H](C)CC)NC(=O)[C@H](NC(=O)[C@H](NC(=O)[C@H](CCCN)NC(=O)[C@H]2CCCN2C(=O)[C@H](NC(=O)[C@@H](NC(=O)[C@@H](NC(=O)[C@H](NC(=O)CCCCCCCCCCCCCCC)C(C)C)[C@@H](C)O)C(C)C)C(C)C)[C@H](C)CC)[C@H](C)OC(=O)[C@H](C(C)C)NC1=O", "SK-MEL-28", "123 nM"],
  ["C/C=C1\\NC(=O)[C@H](Cc2ccccc2)NC(=O)[C@@H](C(C)C)NC(=O)[C@@H]([C@H](C)CC)NC(=O)[C@H](NC(=O)[C@H](NC(=O)[C@H](CCCN)NC(=O)[C@H]2CCCN2C(=O)[C@H](NC(=O)[C@@H](NC(=O)[C@@H](NC(=O)[C@H](NC(=O)C(F)(F)C(F)(F)C(F)(F)C(F)(F)C(F)(F)C(F)(F)F)C(C)C)[C@@H](C)O)C(C)C)C(C)C)[C@H](C)CC)[C@H](C)OC(=O)[C@H](C(C)C)NC1=O", "SK-MEL-28", "765 nM"],
  ["C/C=C1\\NC(=O)[C@H](Cc2ccccc2)NC(=O)[C@@H](C(C)C)NC(=O)[C@@H]([C@H](C)CC)NC(=O)[C@H](NC(=O)[C@H](NC(=O)[C@H](CCCN)NC(=O)[C@H]2CCCN2C(=O)[C@H](NC(=O)[C@@H](NC(=O)[C@@H](NC(=O)[C@H](NC(=O)CCCCCCCCCC)C(C)C)[C@@H](C)O)C(C)C)C(C)C)[C@H](C)CC)[C@H](C)OC(=O)[C@H](C(C)C)NC1=O", "SK-MEL-28", "251 nM"],
  ["C/C=C1\\NC(=O)[C@H](Cc2ccccc2)NC(=O)[C@@H](C(C)C)NC(=O)[C@@H]([C@H](C)CC)NC(=O)[C@H](NC(=O)[C@H](NC(=O)[C@H](CCCN)NC(=O)[C@H]2CCCN2C(=O)[C@H](NC(=O)[C@@H](NC(=O)[C@@H](NC(=O)[C@H](NC(=O)c2ccc(C(F)(F)F)cc2)C(C)C)[C@@H](C)O)C(C)C)C(C)C)[C@H](C)CC)[C@H](C)OC(=O)[C@H](C(C)C)NC1=O", "SK-MEL-28", "823 nM"]
]}

====

# System: DU-145
# ASSAY TEXT: Cytotoxicity against human DU145 cells after 48 hrs by SRB assay
# Assay type: functional, cell-based
# ASSAY SETUP: Homo sapiens, DU-145, 48 h; read-out: LC50 (the source's name)
ASSAY READOUT: CC50 (nM)

{"columns": ["MOLECULE SMILES", "ASSAY READOUT", "REPORTED"],
 "data": [
  ["C/C=C1\\NC(=O)[C@H](Cc2ccccc2)NC(=O)[C@@H](C(C)C)NC(=O)[C@@H]([C@H](C)CC)NC(=O)[C@H](NC(=O)[C@H](NC(=O)[C@H](CCCN)NC(=O)[C@H]2CCCN2C(=O)[C@H](NC(=O)[C@@H](NC(=O)[C@@H](NC(=O)[C@H]2CCCN2C(=O)CCCC(C)C)[C@@H](C)O)C(C)C)C(C)C)[C@H](C)CC)[C@H](C)OC(=O)[C@H](C(C)C)NC1=O", "CC50", 1160],
  ["C/C=C1\\NC(=O)[C@H](Cc2ccccc2)NC(=O)[C@@H](C(C)C)NC(=O)[C@@H]([C@H](C)CC)NC(=O)[C@H](NC(=O)[C@H](NC(=O)[C@H](CCCN)NC(=O)[C@H]2CCCN2C(=O)[C@H](NC(=O)[C@@H](NC(=O)[C@@H](NC(=O)[C@H](NC(=O)CC[C@H](C)CC)C(C)C)[C@@H](C)O)C(C)C)C(C)C)[C@H](C)CC)[C@H](C)OC(=O)[C@H](C(C)C)NC1=O", "CC50", 1130],
  ["C/C=C1\\NC(=O)[C@H](Cc2ccccc2)NC(=O)[C@@H](C(C)C)NC(=O)[C@@H]([C@H](C)CC)NC(=O)[C@H](NC(=O)[C@H](NC(=O)[C@H](CCCNC(=O)/C=C/CCC)NC(=O)[C@H]2CCCN2C(=O)[C@H](NC(=O)[C@@H](NC(=O)[C@@H](NC(=O)[C@H](NC(=O)CCCC(C)C)C(C)C)[C@@H](C)O)C(C)C)C(C)C)[C@H](C)CC)[C@H](C)OC(=O)[C@H](C(C)C)NC1=O", "CC50", 876]
]}

====

# System: DU-145
# ASSAY TEXT: Cytotoxicity against human DU145 cells after 48 hrs by SRB assay
# Assay type: functional, cell-based
# ASSAY SETUP: Homo sapiens, DU-145, 48 h; read-out: LC50 (the source's name)
ASSAY READOUT: log10(CC50) (log10 of the value in nM)

{"columns": ["MOLECULE SMILES", "EXPERIMENTAL SYSTEM", "log10(CC50)"],
 "data": [
  ["CC[C@@H](C)[C@@H](NC(=O)[C@H](CCCN)NC(=O)[C@H]1CCCN1C(=O)[C@H](NC(=O)[C@@H](NC(=O)[C@@H](NC(=O)[C@H](NC(=O)CCCC(C)C)C(C)C)[C@@H](C)O)C(C)C)C(C)C)C(=O)N[C@H]1C(=O)N[C@H]([C@H](C)CC)C(=O)N[C@H](C(C)C)C(=O)N[C@@H](Cc2ccccc2)C(=O)N[C@H](CC)C(=O)N[C@@H](C(C)C)C(=O)O[C@H]1C", "DU-145", 3.23],
  ["C/C=C1\\NC(=O)[C@H](Cc2ccccc2)NC(=O)[C@@H](C(C)C)NC(=O)[C@@H]([C@H](C)CC)NC(=O)[C@H](NC(=O)[C@H](NC(=O)[C@H](CCCNC(=O)CCCC[C@@H]2SC[C@@H]3NC(=O)N[C@@H]32)NC(=O)[C@H]2CCCN2C(=O)[C@H](NC(=O)[C@@H](NC(=O)[C@@H](NC(=O)[C@H](NC(=O)CCCC(C)C)C(C)C)[C@@H](C)O)C(C)C)C(C)C)[C@H](C)CC)[C@H](C)OC(=O)[C@H](C(C)C)NC1=O", "DU-145", 2.91],
  ["C/C=C1\\NC(=O)[C@H](Cc2ccccc2)NC(=O)[C@@H](C(C)C)NC(=O)[C@@H]([C@H](C)CC)NC(=O)[C@H](NC(=O)[C@H](NC(=O)[C@H](CCCN)NC(=O)[C@H]2CCCN2C(=O)[C@H](NC(=O)[C@@H](NC(=O)[C@@H](NC(=O)[C@H](NC(=O)CCCC(C)C)C(C)C)C(C)C)C(C)C)C(C)C)[C@H](C)CC)[C@H](C)OC(=O)[C@H](C(C)C)NC1=O", "DU-145", 2.10],
  ["C/C=C1\\NC(=O)[C@H](Cc2ccccc2)NC(=O)[C@@H](C(C)C)NC(=O)[C@@H]([C@H](C)CC)NC(=O)[C@H](NC(=O)[C@H](NC(=O)[C@H](CCCN)NC(=O)[C@H]2CCCN2C(=O)[C@H](NC(=O)[C@@H](NC(=O)[C@@H](NC(=O)[C@H](NC(=O)CCCCCCCCCCCCCCCCCCC)C(C)C)[C@@H](C)O)C(C)C)C(C)C)[C@H](C)CC)[C@H](C)OC(=O)[C@H](C(C)C)NC1=O", "DU-145", 3.31],
  ["C/C=C1\\NC(=O)[C@H](Cc2ccccc2)NC(=O)[C@@H](C(C)C)NC(=O)[C@@H]([C@H](C)CC)NC(=O)[C@H](NC(=O)[C@H](NC(=O)[C@H](CCCN)NC(=O)[C@H]2CCCN2C(=O)[C@H](NC(=O)[C@H](CCC2CCCCC2)NC(=O)[C@@H](NC(=O)[C@H](NC(=O)CCCC(C)C)C(C)C)[C@@H](C)O)C(C)C)[C@H](C)CC)[C@H](C)OC(=O)[C@H](C(C)C)NC1=O", "DU-145", 2.85]
]}
